Assay: protein stability index of a GFP-peptide fusion (GPS, HEK-293T) (PSI 1-6); higher = more stable;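 further: 24-mer peptide tiles fused after GFP, lentivirally expressed, FACS-sorted into six equal bins by GFP/DsRed ratio, decoded by Illumina sequencing, PSI is the read-weighted mean bin number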
Settings: treatment: DMSO; c terminus: a fixed tail appended
Measured protein stability index of individual entries
readout.label: protein stability index

>  <residue.codes>
LLDELMGRDRNLAPDEKRSNVRWD [LUC7L3]

>  <readout.label>
protein stability index

>  <reported>
3.59

$$$$
>  <residue.codes>
AVPVSTSKPSSDLLDLQPDFSSGG [SNAP91]

>  <readout.label>
protein stability index

>  <reported>
4.76

$$$$
>  <residue.codes>
VEGEQQAWFGFAGTPGYLSPEVLR [CAMK2A]

>  <readout.label>
protein stability index

>  <reported>
3.48

$$$$
>  <residue.codes>
ERSLVLDRLASNVAKRKSSMPQKF [IKZF1]

>  <readout.label>
protein stability index

>  <reported>
3.6

$$$$
>  <residue.codes>
CSRFFIDFPDILEQQRKLETYLQN [TENT5C]

>  <readout.label>
protein stability index

>  <reported>
2.17

$$$$
>  <residue.codes>
GRAQDDVSEWASKAKANGITMYAV [MATN2]

>  <readout.label>
protein stability index

>  <reported>
2.56

$$$$
>  <residue.codes>
VQHERIHTGDKPYKCAECGKSFCH [ZNF8]

>  <readout.label>
protein stability index

>  <reported>
4.54

$$$$

// data source = the supplement of paper PMC10567573
